Below, each entry is listed alongside its reported self-cleavage.
B1: Hairpin Ribozyme (parent)
chain: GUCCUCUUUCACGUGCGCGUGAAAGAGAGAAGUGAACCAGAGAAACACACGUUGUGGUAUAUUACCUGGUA

# Variants of: B1
# EXPERIMENT_SUMMARY: self-cleavage, relative activity (ratio to wild type); higher = more cleavage; co-transcriptional
MEASUREMENT_LABEL: self-cleavage

1) G40U A64U; 0.1
2) A28U G54U; 0.3
3) C10G G42C; 0.307
